Reference source: patent US20090215805A1

Biological target: Human aurora kinase A (Homo sapiens)
Sequence (O14965 1-403): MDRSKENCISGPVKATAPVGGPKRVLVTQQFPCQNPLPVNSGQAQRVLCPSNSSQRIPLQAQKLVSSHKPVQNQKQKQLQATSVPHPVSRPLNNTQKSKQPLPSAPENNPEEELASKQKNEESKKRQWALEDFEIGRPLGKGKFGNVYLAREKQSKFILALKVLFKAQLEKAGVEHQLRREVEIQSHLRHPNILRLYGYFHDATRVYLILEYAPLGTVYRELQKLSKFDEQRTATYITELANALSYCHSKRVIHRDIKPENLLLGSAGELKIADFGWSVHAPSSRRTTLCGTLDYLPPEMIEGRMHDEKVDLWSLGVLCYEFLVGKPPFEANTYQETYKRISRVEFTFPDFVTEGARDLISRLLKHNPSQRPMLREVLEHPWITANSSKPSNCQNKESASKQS
outcome measure: IC50 (nM)
Lab book: enter the figure in nM, no units written.

compound: Cc1c[nH]c(C)c1-c1ccnc(Nc2ccc(N3CCOCC3)c(Cl)c2)n1 [Compound 44]
endpoint unit: nM
IC50: 261

For the next question, use this compound.
Incoming: Can you look up the measured IC50 of COc1cc(Nc2nccc(-c3c(C)c(C#N)n(C)c3C)n2)cc(OC)c1OC [Compound 53] for me?
Outgoing: 125

----------
target: CDK2/E (Homo sapiens, UniProt P24941); test: CDK2/E in vitro kinase assay
outcome measure: pKi
For clarity, pKi is expressed as the negative log10 of concentration in mol/L.

The following molecules have reported results that may help.
molecule: Cc1[nH]c(CN(C)C)c(C)c1-c1ccnc(Nc2cccc([N+](=O)[O-])c2)n1 [Compound 17]
pKi: 7.48
//
molecule: Cc1[nH]c(C#N)c(C)c1-c1ccnc(Nc2ccc(N3CCOCC3)cc2)n1 [Compound 24]
pKi: 6.24
//
molecule: Cc1c[nH]c(C)c1-c1ccnc(Nc2ccc(N3CCOCC3)cc2)n1 [Compound 4]
pKi: 5.74

Incoming: Can you look up the measured pKi of CC(=O)N1CCN(c2ccc(Nc3nccc(-c4c(C)[nH]c(C#N)c4C)n3)cn2)CC1 [Compound 38] for me?
Outgoing: 6.51

Incoming: Can you look up the measured pKi of Cc1[nH]c([N+](=O)[O-])c(C)c1-c1ccnc(Nc2ccc(N(C)C)c([N+](=O)[O-])c2)n1 [Compound 19] for me?
Outgoing: 7.39

Incoming: Can you look up the measured pKi of CNc1ccc(Nc2nccc(-c3c(C)[nH]c(C#N)c3C)n2)cc1C(F)(F)F [Compound 31] for me?
Outgoing: 6.92

Incoming: Can you look up the measured pKi of CCN(CC)CCNS(=O)(=O)c1ccc(Nc2nccc(-c3c(C)[nH]c(C#N)c3C)n2)cc1 [Compound 36] for me?
Outgoing: 7.92

Incoming: Can you look up the measured pKi of COc1ccc(Nc2nccc(-c3c(C)[nH]c(C#N)c3C)n2)cn1 [Compound 28] for me?
Outgoing: 6.73

----------
IC50 values, listed per item
target: DM Aur A (Dm AK-A) (Drosophila melanogaster); test: Dm aurora A kinase assay (DM Aur A / Dm AK-A); assay type: biochemical; details: values without asterisk (DM aurora A)
Lab book: enter the figure in nM, no units written.

The following compounds have reported results that may help.
sample smiles: Cc1[nH]c(C#N)c(C)c1-c1ccnc(Nc2ccc(N3CCN(Cc4ccccc4)CC3)cc2)n1
IC50 (nM): 276
//
sample smiles: CCOC(=O)c1[nH]c(C)c(-c2ccnc(Nc3ccc(O)c([N+](=O)[O-])c3)n2)c1-c1ccccc1
IC50 (nM): 712
//
sample smiles: COCCOC(=O)c1[nH]c(C)c(-c2ccnc(Nc3ccc(N4CCOCC4)cc3)n2)c1-c1ccccc1
IC50 (nM): 853

Incoming: Can you look up the measured IC50 of `CCOC(=O)c1[nH]c(C)c(-c2ccnc(Nc3ccc(N4CCOCC4)cc3)n2)c1C` for me?
Outgoing: 265

Incoming: Can you look up the measured IC50 of `Cc1[nH]c(C#N)c(C)c1-c1ccnc(Nc2ccc(Cl)nc2)n1` for me?
Outgoing: 861

Incoming: Can you look up the measured IC50 of `CCNS(=O)(=O)c1cccc(Nc2nccc(-c3c(C)[nH]c(C#N)c3C)n2)c1` for me?
Outgoing: 413

Incoming: Can you look up the measured IC50 of `CC(=O)N1CCN(c2ccc(Nc3nccc(-c4c(C)[nH]c(C#N)c4C)n3)cn2)CC1` for me?
Outgoing: 177

----------
pEC50 values, listed per item
test system: Glycogen synthase activation in HEK293 cells; assay: Glycogen synthase activation in HEK293 cells; type: cell-based; details: Homo sapiens, 1.5 h, 90 minutes treatment
For clarity, pEC50 is expressed as the negative log10 of concentration in mol/L.

The following compounds have reported results that may help.
sample smiles: Cc1[nH]c(C#N)c(C)c1-c1ccnc(Nc2ccc(Cl)nc2)n1
pEC50: 5.66
//
sample smiles: COc1ccc(Nc2nccc(-c3c(C)[nH]c(C#N)c3C)n2)cn1
pEC50: 5.18
//
sample smiles: Cc1[nH]c(C#N)c(C)c1-c1ccnc(Nc2ccc(N(C)C)c([N+](=O)[O-])c2)n1
pEC50: 5.82
//
sample smiles: CCNS(=O)(=O)c1cccc(Nc2nccc(-c3c(C)[nH]c(C#N)c3C)n2)c1
pEC50: 5.39

Incoming: Can you look up the measured pEC50 of `Cc1[nH]c([N+](=O)[O-])c(C)c1-c1ccnc(Nc2ccc(N(C)C)c([N+](=O)[O-])c2)n1` for me?
Outgoing: 6.15

----------
target: DM Aur A (Dm AK-A) (Drosophila melanogaster, UniProt Q9VGF9)
Sequence (Q9VGF9 entry or part of it): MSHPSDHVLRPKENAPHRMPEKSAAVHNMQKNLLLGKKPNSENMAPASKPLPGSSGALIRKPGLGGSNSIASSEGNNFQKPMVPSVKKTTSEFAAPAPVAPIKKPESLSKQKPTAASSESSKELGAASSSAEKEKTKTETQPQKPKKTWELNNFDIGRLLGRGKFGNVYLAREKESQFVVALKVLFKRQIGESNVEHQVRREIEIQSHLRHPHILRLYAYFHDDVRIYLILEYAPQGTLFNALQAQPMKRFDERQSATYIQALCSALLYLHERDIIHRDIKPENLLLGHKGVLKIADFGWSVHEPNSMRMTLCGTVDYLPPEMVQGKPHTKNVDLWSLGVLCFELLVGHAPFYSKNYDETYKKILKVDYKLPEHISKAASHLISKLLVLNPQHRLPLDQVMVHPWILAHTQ
pKi: −log10 of the molar value.
We use 7 as the dividing line for pKi: on or above the line is label 1, below is label 0.

Example entries begin here.
sample smiles: CC(=O)N1CCN(c2ccc(Nc3nccc(-c4c(C)[nH]c(C#N)c4C)n3)cc2)CC1
assigned label: label 1
//
sample smiles: Cc1[nH]cc(-c2ccccc2)c1-c1ccnc(Nc2cccc([N+](=O)[O-])c2)n1
assigned label: label 0
//
sample smiles: Cc1[nH]c(C#N)c(C)c1-c1ccnc(Nc2cccc(S(=O)(=O)NC(C)C)c2)n1
assigned label: label 0
//
sample smiles: CCOC(=O)c1[nH]c(C)c(-c2ccnc(Nc3cccc(F)c3)n2)c1-c1ccccc1
assigned label: label 0

Incoming: Determine whether measured pKi meets or exceeds 7 for `Cc1[nH]c(C#N)c(C)c1-c1ccnc(Nc2ccc(Cl)nc2)n1`
Outgoing: label 0

----------
target: UniProtKB Q9VGF9
outcome measure: IC50

The following compounds have reported results that may help.
compound: CCOC(=O)c1[nH]c(C)c(-c2ccnc(Nc3ccc(C(F)(F)F)cc3)n2)c1-c1ccccc1 [Compound 10]
IC50: ≥ 10 µM
--
compound: Cc1c[nH]c(C)c1-c1ccnc(Nc2ccc(N3CCOCC3)cc2)n1 [Compound 4]
IC50: 0.072 µM
--
compound: Cc1c[nH]c(C)c1-c1ccnc(Nc2ccc(C#N)cc2)n1 [Compound 1]
IC50: ≥ 10 µM
--
compound: CC(=O)N1CCN(c2ccc(Nc3nccc(-c4c(C)[nH]c(C#N)c4C)n3)cc2)CC1 [Compound 41]
IC50: 0.048 µM
--
compound: Cc1[nH]c(C#N)c(C)c1-c1ccnc(Nc2cccc(S(=O)(=O)NC(C)C)c2)n1 [Compound 34]
IC50: 3.32 µM

Incoming: Can you look up the measured IC50 of Cc1[nH]cc(-c2ccccc2)c1-c1ccnc(Nc2ccc(O)cc2)n1 [Compound 15] for me?
Outgoing: 1.54 µM

Incoming: Can you look up the measured IC50 of Cc1cc(Nc2nccc(-c3c(C)[nH]c(C#N)c3C)n2)cnc1Cl [Compound 33] for me?
Outgoing: 1.7 µM

----------
target: CDK2/E (Homo sapiens); assay: CDK2/E in vitro kinase assay
Ki values, listed per item
Lab book: enter the figure in nM, no units written.

sample smiles: CC(=O)N1CCN(c2ccc(Nc3nccc(-c4c(C)[nH]c(C#N)c4C)n3)cc2)CC1
Ki / nM: 308
//
sample smiles: COc1cc(Nc2nccc(-c3c(C)[nH]c(C#N)c3C)n2)cc(OC)c1OC
Ki / nM: 759
//
sample smiles: Cc1c(-c2ccnc(Nc3ccc(N(C)C)cc3)n2)c(C)n(C)c1C#N
Ki / nM: 538
//
sample smiles: Cc1[nH]c(C#N)c(C)c1-c1ccnc(Nc2ccc(Cl)nc2)n1
Ki / nM: 197
//
sample smiles: CCOC(=O)c1[nH]c(C)c(-c2ccnc(Nc3cc(OC)c(OC)c(OC)c3)n2)c1C
Ki / nM: 4700
//
sample smiles: COc1ccc(Nc2nccc(-c3c(C)c[nH]c3C)n2)cn1
Ki / nM: 861

For the next question, use this compound.
Incoming: Can you look up the measured Ki of `Cc1[nH]c(C#N)c(C)c1-c1ccnc(Nc2ccc(N(C)C)c([N+](=O)[O-])c2)n1` for me?
Outgoing: 119
